Listed molecules paired with reported selectivity ratio
# Protocol Text: Selectivity index, ratio of IC50 for african green monkey Vero cells to IC50 for Trypanosoma cruzi IRHOD/VO/2008/SN3 axenic amastigotes
# Assay type: toxicity, cell-based
# Condition Summary: Vero cells versus Trypanosoma cruzi axenic amastigotes, read-out: Ratio IC50
Lab note: record just the number, no unit beside it.

These solved cases illustrate the format of a correct answer.
c1ccc2c(NCCc3cnc[nH]3)nnc(NCCc3cnc[nH]3)c2c1 : 21.3
c1ccc2c(NCCCn3ccnc3)nnc(NCCCn3ccnc3)c2c1 : 24.2
Clc1nnc(NCCCn2ccnc2)c2ccccc12 : 41.2

Here is another molecule to look at.
I would be grateful if you could share the reported selectivity ratio for Clc1nnc(NCCc2c[nH]cn2)c2ccccc12 .
42.3

====

# Tested on: Trypanosoma cruzi
# Protocol Text: Effect on glucose metabolism in Trypanosoma cruzi IRHOD/VO/2008/SN3 epimastigotes assessed as excreted L-alanine level at IC25 level incubated for 96 hrs at 28 degC by [1H]NMR spectroscopy
Active and inactive are the calls of the source. The calls are words filed in the database; no cut-off is given here.
Measurement Label: Activity

c1ccc2c(NCCCn3ccnc3)nnc(NCCCn3ccnc3)c2c1 : inactive
Clc1nnc(NCCCn2ccnc2)c2ccccc12 : -27%
Clc1nnc(NCCc2c[nH]cn2)c2ccccc12 : -13%
c1ccc2c(NCCc3c[nH]cn3)nnc(NCCc3c[nH]cn3)c2c1 : inactive

====

# Protocol Text: Inhibition of Trypanosoma cruzi IRHOD/VO/2008/SN3 epimastigotes Iron superoxide dismutase by spectrophotometry
Measurement Label: IC50 (µM)
A number alone suffices; assume µM.

These solved cases illustrate the format of a correct answer.
c1ccc2c(NCCc3c[nH]cn3)nnc(NCCc3c[nH]cn3)c2c1 : 48
Clc1nnc(NCCc2c[nH]cn2)c2ccccc12 : 12.9
Clc1nnc(NCCCn2ccnc2)c2ccccc12 : 14.4

Here is another compound to look at.
I would be grateful if you could share the reported IC50 for c1ccc2c(NCCCn3ccnc3)nnc(NCCCn3ccnc3)c2c1 .
41.7

====

# Target: Superoxide dismutase [Cu-Zn] (Homo sapiens, UniProt P00441)
# Sequence (P00441 whole entry): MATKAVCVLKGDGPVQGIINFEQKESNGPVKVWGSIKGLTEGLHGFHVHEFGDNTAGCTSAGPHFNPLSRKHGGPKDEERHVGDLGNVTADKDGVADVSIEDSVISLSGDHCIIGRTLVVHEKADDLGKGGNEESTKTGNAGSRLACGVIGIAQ
# Protocol Text: Inhibition of SOD1 in human erythrocytes by spectrophotometry
Listed compounds paired with reported pIC50
Formally, pIC50 is defined as -log10 of the concentration c, with c in mol/L.

Clc1nnc(NCCc2c[nH]cn2)c2ccccc12 : 4.15
c1ccc2c(NCCCn3ccnc3)nnc(NCCCn3ccnc3)c2c1 : 4.18
c1ccc2c(NCCc3cnc[nH]3)nnc(NCCc3cnc[nH]3)c2c1 : 3.90

Here is another compound to look at.
I would be grateful if you could share the reported pIC50 for Clc1nnc(NCCCn2ccnc2)c2ccccc12 .
4.08

====

# Tested on: Trypanosoma cruzi
# Protocol Text: Antitrypanosomal activity against Trypanosoma cruzi IRHOD/VO/2008/SN3 isolated from mouse blood trypomastigotes incubated for 24 hrs
# Format: functional, organism-based
# Condition Summary: IRHOD/VO/2008/SN3, Blood
Measurement Label: pIC50
Formally, pIC50 is defined as -log10 of the concentration c, with c in mol/L.

Clc1nnc(NCCCn2ccnc2)c2ccccc12 : 4.99
c1ccc2c(NCCCn3ccnc3)nnc(NCCCn3ccnc3)c2c1 : 4.77
O=C(Cn1ccnc1[N+](=O)[O-])NCc1ccccc1 : 4.79
c1ccc2c(NCCc3c[nH]cn3)nnc(NCCc3c[nH]cn3)c2c1 : 4.65

Here is another molecule to look at.
I would be grateful if you could share the reported pIC50 for Clc1nnc(NCCc2c[nH]cn2)c2ccccc12 .
5.04
